test system: SMN2 CJ mRNA; test: Gene panel canonical junction qPCR splicing assay, SMN2; type: cell-based; conditions: Table 4, read-out: SMN2 IC50 (decrease in CJ mRNA levels)
pIC50: −log10 of the molar value.
metric: pIC50

Record request: pIC50 value, item Cc1nc2cc(O)c(-c3ccc4nc(C5CCNCC5)ccc4n3)cc2s1 [Compound 148]
> 7.00

Record request: pIC50 value, item Cn1cc2cc(-c3ccc4nc(N5CCNC6(CC6)C5)ccc4n3)c(O)cc2n1 [Compound 121]
5.00 to 6.00

Record request: pIC50 value, item CN1CCC(c2ccc3nc(-c4cc5cn(C)nc5cc4O)ccc3n2)CC1 [Compound 142]
> 7.00

Record request: pIC50 value, item COc1cc2nc(C)sc2cc1-c1ccc2nc(N3CCC(NC(C)(C)C)C3)ccc2n1 (stereo not shown) [Compound 176]
5.00 to 6.00

Record request: pIC50 value, item Cn1cc2cc(-c3ccc4nc(N5CC[C@H](NC6CC6)C5)ccc4n3)c(O)cc2n1 [Compound 197]
> 7.00

Record request: pIC50 value, item Cn1cc2c(O)c(-c3ncc4nc(C5CCNCC5)ccc4n3)ccc2n1 [Compound 108]
> 7.00

Record request: pIC50 value, item CN1CCN(c2ccc3nc(-c4cc5cn(C)nc5cc4O)ccc3n2)CC1 [Compound 116]
> 7.00

Record request: pIC50 value, item Cn1cc2cc(-c3ccc4nc(N5CCC(N6CCCC6)C5)ccc4n3)c(O)cc2n1 (stereo not shown) [Compound 125]
> 7.00

Record request: pIC50 value, item Cc1nc2c(F)c(O)c(-c3ccc4nc(N5CC[C@@H](NC(C)(C)C)C5)ccc4n3)cc2o1 (single isomer, unassigned) [Compound 256]
> 7.00

Record request: pIC50 value, item Cn1cc2cc(-c3ccc4nc(N5CC[C@@H](NC6(C)CC6)C5)ccc4n3)c(O)cc2n1 (single isomer, unassigned) [Compound 220]
> 7.00

Record request: pIC50 value, item Cn1cc2cc(-c3ccc4nc(N5CCN6CCCC6C5)ccc4n3)c(O)cc2n1 (stereo not shown) [Compound 134]
> 7.00

Record request: pIC50 value, item Cc1cn2cc(-c3ccc4nc(C5CCNCC5)ccc4n3)c(O)cc2n1 [Compound 149]
6.00 to 7.00

Record request: pIC50 value, item Cn1cc2cc(-c3ccc4nc(N5C[C@H]6CC[C@@H](C5)N6)ccc4n3)c(O)cc2n1 [Compound 135]
> 7.00

Record request: pIC50 value, item COc1cc2c(=O)n(C)cnc2cc1-c1ccc2nc(N3CCC(NC(C)(C)C)C3)ccc2n1 (stereo not shown) [Compound 168]
< 5.00

Record request: pIC50 value, item CN[C@H]1CCN(c2ccc3nc(-c4cc5cn(C)nc5cc4O)ccc3n2)C1 [Compound 170]
> 7.00

Record request: pIC50 value, item Cn1cc2cc(-c3ccc4nc(N5CC[C@@H](NC(C)(C)C)C5)ccc4n3)c(O)cc2n1 [Compound 153]
> 7.00
